Recorded values, source paper PMC11574364.

Listed next: entries and their corresponding binding signal.
- tested_system: STAU2(1-2) (Homo sapiens)
- Chain: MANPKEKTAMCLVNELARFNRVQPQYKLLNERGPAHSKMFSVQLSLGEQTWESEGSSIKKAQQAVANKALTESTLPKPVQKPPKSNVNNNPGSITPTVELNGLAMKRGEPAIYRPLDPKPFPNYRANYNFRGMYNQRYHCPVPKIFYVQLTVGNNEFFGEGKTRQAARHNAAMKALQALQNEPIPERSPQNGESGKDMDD
- assay_explanation: protein domain microarray probed with biotinylated miRNA; Domain array: 20 mM Tris-HCl pH 7.4, 200 mM KCl, 0.2 mM EDTA, 0.05% NP40, 2 ug/ul heparin, overnight 4 C. ORF array: PBS pH 7.0 with RNase inhibitor, 100 ng RNA; high values mean tight binding
- condition_summary: ssRNA

record_sequence | binding signal [fluorescence intensity]
UGAGGUAGUAGGUUGUAUGGUU | 74.1
UGAGGUAGUAGGUUGUGUGGUU | 149
AGAGGUAGUAGGUUGCAUAGUU | 53.6
CAGUGCAAUGAUGAAAGGGCAU | 39.2
